Reference for the values: PubChem BioAssay AID485317

target: FAD-linked sulfhydryl oxidase ALR (Homo sapiens) (UniProt P55789); assay: ALR-catalysed DTT oxidation blockers – biochemical, H2O2 detection, HRP-luminol luminescence, single point, primary screen (AID 485317); details: purified ALR, active compounds read high, concentration not given here
Sequence (P55789 whole entry, looked up): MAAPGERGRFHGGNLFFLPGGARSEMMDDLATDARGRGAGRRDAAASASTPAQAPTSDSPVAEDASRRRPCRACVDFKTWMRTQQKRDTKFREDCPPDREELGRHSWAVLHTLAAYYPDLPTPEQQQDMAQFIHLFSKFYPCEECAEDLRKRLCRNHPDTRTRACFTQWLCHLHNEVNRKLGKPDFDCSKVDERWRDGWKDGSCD
Screen size: about 290,000 compounds; about 11,000 (3.8%) were called active. This is one part of a sample in which actives are shown more often than they occur.
measuredMetric: inhibition (%)
Numbers only here, please. The scale is %.

Examples with answers:
[[record]]
compound = "O=C(NCCCc1ccccc1)C1CCC(=O)N(CCc2ccc(Cl)cc2)C1 (stereo not given)"
measuredmetric = "inhibition"
readoutvalue = 0.977

[[record]]
compound = "CCCC[C@@H]1CN=C(N)N1CCc1cc(C(F)(F)F)cc(C(F)(F)F)c1"
measuredmetric = "inhibition"
readoutvalue = -42.9

[[record]]
compound = "CC(C)(C)OC(=O)C[C@@H]1C/C=C\\C[C@@H](CC(=O)N[C@@H](CO)Cc2ccccc2)C(=O)N2CCC[C@H]2COC1=O"
measuredmetric = "inhibition"
readoutvalue = -8.71

[[record]]
compound = "COc1cc(OC)cc(C(=O)NNC(=O)CNC(=O)c2ccc(Br)o2)c1"
measuredmetric = "inhibition"
readoutvalue = 7.85


Recorded inhibition for CCCC[C@@H]1CN=C(N)N1CCCC , please?
4.8

---

biological target: FAD-linked sulfhydryl oxidase ALR (Homo sapiens) (UniProt P55789); assay: ALR-catalysed DTT oxidation blockers – biochemical, H2O2 detection, HRP-luminol luminescence, single point, primary screen (AID 485317); settings: purified ALR, active compounds read high, concentration not given here
About 11,000 (3.8%) of roughly 290,000 compounds were called active. The sample holds actives, similar compounds and a random draw of the others, so the mix is not that of the screen.
Some compounds, each annotated with its measured inhibition.
Numbers only here, please. The scale is %.

Examples with answers:
[[record]]
compound = "O=C1CCC/C=C\\C[C@@H](CC(=O)N(CCO)Cc2ccccc2)C(=O)NCCO1"
readoutvalue = 0.845

[[record]]
compound = "CCCc1cc(-c2n[nH]c(=S)n2Cc2ccccc2)cs1"
readoutvalue = 49.7

[[record]]
compound = "CCN(CCNC(=O)C1=C(C)C(=O)OC12CCC(C)CC2)c1ccccc1 (stereo not drawn)"
readoutvalue = 98.4


Pending compound:
Recorded inhibition for Cc1ccc(Cn2c(SCC(=O)N/N=C/c3ccccc3OCC(=O)O)nc3ccccc32)cc1 , please?
-5.09

---

target: FAD-linked sulfhydryl oxidase ALR (Homo sapiens) (UniProt P55789); assay: ALR-catalysed DTT oxidation blockers – biochemical, H2O2 detection, HRP-luminol luminescence, single point, primary screen (AID 485317); settings: purified ALR, active compounds read high, concentration not given here
Screen size: about 290,000 compounds; about 11,000 (3.8%) were called active. The sample holds actives, similar compounds and a random draw of the others, so the mix is not that of the screen.
measuredMetric: inhibition (%)
Numbers only here, please. The scale is %.

Provide the documented inhibition with FAD-linked sulfhydryl oxidase ALR (Homo sapiens) (UniProt P55789) as the system for COc1ccc(C(=O)Oc2cc(/C=N/NS(=O)(=O)c3ccc(C)cc3)ccc2OC)cc1
-2.65

Provide the documented inhibition with FAD-linked sulfhydryl oxidase ALR (Homo sapiens) (UniProt P55789) as the system for COc1ccc(S(=O)(=O)N(C)C[C@@H]2Oc3ccc(NC(=O)Nc4c(C)noc4C)cc3C(=O)N([C@H](C)CO)C[C@@H]2C)cc1
-1.21
